assay: Saturation solubility of enavogliflozin in aqueous excipient solutions (HPLC); type: physicochemical; conditions: aqueous excipient solution (excipient in purified water), water, thermodynamic from solid, EtOH 0.50 %w/v in purified water; read-out: Saturation solubility
endpoint-name: solubility at 12 h (µg/mL)
Response body: numeric value in µg/mL, unit text excluded.

Prompt: Give its solubility at 12 h value. Item: OC[C@H]1O[C@@H](c2cc(Cc3ccc(C4CC4)cc3)c(Cl)c3c2CCO3)[C@H](O)[C@@H](O)[C@@H]1O [enavogliflozin, Enavogliflozin]
Completion: 260

====

Assay: Saturation solubility of enavogliflozin in aqueous excipient solutions (HPLC)
Format: physicochemical
Conditions: aqueous excipient solution (excipient in purified water), aqueous with cosolvent or surfactant or cyclodextrin, thermodynamic from solid, Kolliphor™ EL 5.0 w/v% in purified water; read-out: Saturation solubility of enavogliflozin
Description: According to Table 1 below, enavogliflozin in the amount corresponding to each standard solution and 70 mL of methanol were placed in a volumetric flask and then completely dissolved under ultrasonic agitation. Methanol was added thereto to adjust the total volume to 100 mL. The resulting solution was taken and filtered through a 0.45 µm RC (Regenerated Cellulose) membrane filter. The first 2 mL was discarded and then the filtrate was used as a standard solution. […]
endpoint-name: solubility at 12 h
Answer format: value, then unit.

Prompt: Please give the measured solubility at 12 h for this molecule: OC[C@H]1O[C@@H](c2cc(Cc3ccc(C4CC4)cc3)c(Cl)c3c2CCO3)[C@H](O)[C@@H](O)[C@@H]1O [enavogliflozin, Enavogliflozin]
Completion: 16.8 mg/mL
